- system.name: T1, htau40 (Homo sapiens, UniProt P10636)
- T1 construct: Full length tau (hT40)
- protocol.details: Biacore X100 SPR kinetics of anti-tau mAbs on immobilised htau40
- Format: binding
- study.conditions: Table 27; mAb format, immobilised htau40
- Procedure: For anti-tau mAb SPR measurements, htau40 was conjugated to the surface of a CM5 sensor chip using amine coupling as explained previously. […] Binding responses were analysed in Biacore X100 evaluation software and data fitted to a 1:1 binding model to obtain kinetic and affinity characterisation. […]
test.readout: kd (s⁻¹)
Answer in s⁻¹, number only, no unit symbol.

query: Supply kd value. Item: S1G2: sheep-derived anti-tau core clone; scFv SEQ ID NO: 81, VH 455, VL 456 (protein, S1G2 amino acid sequence) scFv: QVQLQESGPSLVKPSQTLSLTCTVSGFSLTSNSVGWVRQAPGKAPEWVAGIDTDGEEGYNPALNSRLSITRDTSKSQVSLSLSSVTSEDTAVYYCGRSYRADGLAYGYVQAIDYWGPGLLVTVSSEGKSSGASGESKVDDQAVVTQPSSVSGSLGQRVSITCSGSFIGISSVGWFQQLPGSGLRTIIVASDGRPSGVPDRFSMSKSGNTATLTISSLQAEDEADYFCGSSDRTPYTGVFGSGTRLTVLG
result: 4.748e-05

The measured values listed here are drawn from patent US20250355001A1.
